Numbers sourced from ChEMBL document CHEMBL1121850.

# Measurement protocol: Michaelis constant was determined
# Assay type: ADME
Quantity: Km (mM)
Express it in mM; write the number only.

Asked: Tell me the measured Km of CC(C)C[C@H](NC(=O)[C@H](CCC(=O)O)NC(=O)[C@@H](CCC(=O)O)NC(=O)[C@H](CC(C)C)NC(=O)[C@@H](N)Cc1ccccc1)C(=O)O , please.
Given back: 4

====

Relative activity for assorted molecules
# Tgt: Vitamin K-dependent gamma-carboxylase (Rattus norvegicus) (UniProt O88496)
# Sequence (O88496 whole entry): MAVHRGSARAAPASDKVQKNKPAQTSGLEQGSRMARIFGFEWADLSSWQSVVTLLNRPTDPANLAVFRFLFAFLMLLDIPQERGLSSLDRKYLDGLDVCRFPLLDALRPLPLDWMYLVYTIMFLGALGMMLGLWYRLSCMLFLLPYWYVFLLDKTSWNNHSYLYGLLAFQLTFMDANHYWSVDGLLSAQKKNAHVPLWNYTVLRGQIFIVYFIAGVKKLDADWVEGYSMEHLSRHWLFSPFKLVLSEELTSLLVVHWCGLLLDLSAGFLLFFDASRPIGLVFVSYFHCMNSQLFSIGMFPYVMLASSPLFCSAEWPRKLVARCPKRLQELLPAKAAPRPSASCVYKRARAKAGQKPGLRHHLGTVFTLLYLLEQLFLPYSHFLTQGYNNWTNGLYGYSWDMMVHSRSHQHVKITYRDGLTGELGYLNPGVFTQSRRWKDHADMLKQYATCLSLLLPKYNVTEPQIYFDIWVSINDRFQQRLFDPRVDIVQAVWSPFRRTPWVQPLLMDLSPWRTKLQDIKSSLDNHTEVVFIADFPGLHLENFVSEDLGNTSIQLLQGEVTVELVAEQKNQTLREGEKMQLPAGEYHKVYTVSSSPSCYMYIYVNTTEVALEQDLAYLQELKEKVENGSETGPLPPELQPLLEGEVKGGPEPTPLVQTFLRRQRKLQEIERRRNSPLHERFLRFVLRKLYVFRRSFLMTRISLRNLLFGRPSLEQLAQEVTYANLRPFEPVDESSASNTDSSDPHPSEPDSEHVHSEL
# Measurement protocol: Relative activity for […] rat liver vitamin K dependent carboxylase mediated carboxylation of pentapeptide at 1 mM.
# Type: functional, tissue-based
Peptide text beside a SMILES is read from it.
Express it in %; write the number only.

The cases that follow already have their Relative activity on record.
1) COC(=O)NC(=O)[C@H](CC(C)C)NC(=O)[C@H](CC(=O)O)NC(=O)C(CCC(=O)O)NC(=O)OC(C)(C)C (stereo partly specified)
11
2) CCC(=O)N[C@@H](Cc1ccccc1)C(=O)N[C@@H](CC(C)C)C(=O)N[C@@H](CCC(=O)O)C(=O)N[C@@H](CCC(=O)O)C(=O)N[C@@H](CC(C)C)C(=O)O (HELM PEPTIDE1{[CCC(=O)[*:2]].F.L.E.E.L}$$$$V2.0)
149

Consider the additional molecule presented here.
Asked: Tell me the measured Relative activity of CC(C)C[C@H](NC(=O)[C@H](CO)NC(=O)[C@H](CCC(=O)O)NC(=O)[C@H](CC(C)C)NC(=O)[C@H](C)NC(=O)[C@H](CCC(=O)O)NC(=O)[C@@H](N)Cc1ccccc1)C(=O)O (H-FEALESL-OH) , please.
Given back: 6
